Test system: Watergrass (Echinochloa)
assayOverview: Post-Emergent Test, herbicidal effectiveness
Format: in vivo
runParameters: post-emergence, 504 h, 33 micrograms per cm^2, 3 weeks, 0-to-100 scale, read-out: Herbicidal Effectiveness, % Control Post, W
measuredQuantity: pest or weed control at 5000 µg/mL, 33 µg/cm2 (%)
Only the number, expressed in %, is required.

* Cc1nnc(CN(C(=O)CCl)c2ccc(Cl)c(Cl)c2)[nH]1 [Compound 27B] | 0
* Cc1cccc(C)c1N(Cc1nnc(S)[nH]1)C(=O)CCl [Compound 18B] | 0
* CCc1nnc(CNc2c(C)cccc2CC)[nH]1 [Compound 15A] | 0

response.value for Cc1nnc(CCN(C(=O)CCl)c2c(C)cccc2C)[nH]1 [Compound 10B] (field: pest or weed control at 5000 µg/mL, 33 µg/cm2) = 55

response.value for Cc1nnc(CN(C(=O)CCl)c2c(C)cccc2C)[nH]1 [Compound 2B] (field: pest or weed control at 5000 µg/mL, 33 µg/cm2) = 75

response.value for CCc1cccc(C)c1NCc1nnc(C)[nH]1 [Compound 6A] (field: pest or weed control at 5000 µg/mL, 33 µg/cm2) = 0

response.value for CCc1cccc(CC)c1N(Cc1nnc(SC)n1C)C(=O)CCl [Compound 23B] (field: pest or weed control at 5000 µg/mL, 33 µg/cm2) = 0

response.value for Cc1cccc(C)c1NCc1nnc[nH]1 [Compound 9A] (field: pest or weed control at 5000 µg/mL, 33 µg/cm2) = 0

response.value for CCc1nnc(CNc2c(CC)cccc2CC)[nH]1 [Compound 8A] (field: pest or weed control at 5000 µg/mL, 33 µg/cm2) = 0

response.value for Cc1nnc(CN(C(=O)CCl)c2ccccc2C)[nH]1 [Compound 25B] (field: pest or weed control at 5000 µg/mL, 33 µg/cm2) = 40

response.value for Cc1cccc(C)c1NCc1nnc(S)[nH]1 [Compound 18A] (field: pest or weed control at 5000 µg/mL, 33 µg/cm2) = 0

response.value for Cc1cccc(C)c1NC(C)c1nnc[nH]1 (stereo not shown) [Compound 12A] (field: pest or weed control at 5000 µg/mL, 33 µg/cm2) = 0

response.value for CSc1nnc(CNc2c(C)cccc2C)n1C [Compound 14A] (field: pest or weed control at 5000 µg/mL, 33 µg/cm2) = 0
